# Test system: 494315-158-R-J1-PDC complex spheroid growth, percent test/control
# test_protocol: Anticancer human tumor 494315-158-R-J1-PDC patient-derived soft tissue sarcoma cell line growth inhibition [Asc]
# test_context: second compound 1 µM; first compound 0.03 µM; stronger effect = lower value
Assign viability, T/C to each entry below.

Notebook: CCN1C(C(=O)NC23CCC(C(=O)O)(CC2)CC3)C(c2cccc(Cl)c2F)C2(C(=O)Nc3cc(Cl)ccc32)C12CCCCC2 (configuration not stated) + CNC(C)C(=O)NC1CN(S(=O)(=O)c2cccc(S(=O)(=O)N3CCC4CCC(C(=O)NC(c5ccccc5)c5ccccc5)N4C(=O)C(NC(=O)C(C)NC)C3)c2)CCC2CCC(C(=O)NC(c3ccccc3)c3ccccc3)N2C1=O , viability, T/C read as 45.6%

Notebook: NC(=O)C(=Cn1cnc(-c2cc(C(F)(F)F)cc(C(F)(F)F)c2)n1)c1cncnc1 + Cc1c(S(C)(=O)=O)c(-c2cc(F)cc(N3CCN(c4ccc(NS(=O)(=O)c5ccc(NC(CCN6CCC(C(=O)OCCCP(=O)(O)O)CC6)CSc6ccccc6)c(S(=O)(=O)C(F)(F)F)c5)cc4)CC3)c2)c(-c2ccc(Cl)cc2)n1C(C)C , viability, T/C read as 35.1%

---

# Test system: 494315-158-R-J1-PDC complex spheroid growth, percent test/control
# test_protocol: Anticancer human tumor 494315-158-R-J1-PDC cell line growth inhibition [Asc];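 note: compound exposure lasted seven days after spheroids formed for three days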
# test_context: second compound 1 µM; first compound 0.0949 µM; stronger effect = lower value
# strict inequality: viability, T/C < 40% yields 1.0, everything else yields 0.0

Problem: viability, T/C under 40%? Item: NC(=O)C(=Cn1cnc(-c2cc(C(F)(F)F)cc(C(F)(F)F)c2)n1)c1cncnc1 + CNC(C)C(=O)NC1CN(S(=O)(=O)c2cccc(S(=O)(=O)N3CCC4CCC(C(=O)NC(c5ccccc5)c5ccccc5)N4C(=O)C(NC(=O)C(C)NC)C3)c2)CCC2CCC(C(=O)NC(c3ccccc3)c3ccccc3)N2C1=O
Solution: 1.0

Problem: viability, T/C under 40%? Item: Cc1nc(N2CCC3(CC2)COC(C)C3N)c(CO)nc1Sc1ccnc(N)c1Cl (stereo unspecified) + CNC(C)C(=O)NC1CN(S(=O)(=O)c2cccc(S(=O)(=O)N3CCC4CCC(C(=O)NC(c5ccccc5)c5ccccc5)N4C(=O)C(NC(=O)C(C)NC)C3)c2)CCC2CCC(C(=O)NC(c3ccccc3)c3ccccc3)N2C1=O
Solution: 0.0

Problem: viability, T/C under 40%? Item: Cc1nc(N2CCC3(CC2)COC(C)C3N)c(CO)nc1Sc1ccnc(N)c1Cl (stereo unspecified) + Cc1c(S(C)(=O)=O)c(-c2cc(F)cc(N3CCN(c4ccc(NS(=O)(=O)c5ccc(NC(CCN6CCC(C(=O)OCCCP(=O)(O)O)CC6)CSc6ccccc6)c(S(=O)(=O)C(F)(F)F)c5)cc4)CC3)c2)c(-c2ccc(Cl)cc2)n1C(C)C
Solution: 0.0

Problem: viability, T/C under 40%? Item: CCN1C(C(=O)NC23CCC(C(=O)O)(CC2)CC3)C(c2cccc(Cl)c2F)C2(C(=O)Nc3cc(Cl)ccc32)C12CCCCC2 (stereo unspecified) + CNC(C)C(=O)NC1CN(S(=O)(=O)c2cccc(S(=O)(=O)N3CCC4CCC(C(=O)NC(c5ccccc5)c5ccccc5)N4C(=O)C(NC(=O)C(C)NC)C3)c2)CCC2CCC(C(=O)NC(c3ccccc3)c3ccccc3)N2C1=O
Solution: 0.0

Problem: viability, T/C under 40%? Item: NC(=O)C(=Cn1cnc(-c2cc(C(F)(F)F)cc(C(F)(F)F)c2)n1)c1cncnc1 + Cc1c(S(C)(=O)=O)c(-c2cc(F)cc(N3CCN(c4ccc(NS(=O)(=O)c5ccc(NC(CCN6CCC(C(=O)OCCCP(=O)(O)O)CC6)CSc6ccccc6)c(S(=O)(=O)C(F)(F)F)c5)cc4)CC3)c2)c(-c2ccc(Cl)cc2)n1C(C)C
Solution: 1.0

Problem: viability, T/C under 40%? Item: CCN1C(C(=O)NC23CCC(C(=O)O)(CC2)CC3)C(c2cccc(Cl)c2F)C2(C(=O)Nc3cc(Cl)ccc32)C12CCCCC2 (stereo unspecified) + Cc1c(S(C)(=O)=O)c(-c2cc(F)cc(N3CCN(c4ccc(NS(=O)(=O)c5ccc(NC(CCN6CCC(C(=O)OCCCP(=O)(O)O)CC6)CSc6ccccc6)c(S(=O)(=O)C(F)(F)F)c5)cc4)CC3)c2)c(-c2ccc(Cl)cc2)n1C(C)C
Solution: 0.0

---

# System: 494315-158-R-J1-PDC complex spheroid growth, percent test/control
# test_protocol: Anticancer human tumor 494315-158-R-J1-PDC cell line growth inhibition [Asc];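 note: compound exposure lasted seven days after spheroids formed for three days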
# test_context: second compound 0.3 µM; first compound 1 µM; stronger effect = lower value
metric_name: viability, T/C

Notebook: C=CC(=O)N1CCN(c2nc(=O)n(-c3c(C)ccnc3C(C)C)c3nc(-c4c(O)cccc4F)c(F)cc23)C(C)C1 (centres undefined) + CCN1C(C(=O)NC23CCC(C(=O)O)(CC2)CC3)C(c2cccc(Cl)c2F)C2(C(=O)Nc3cc(Cl)ccc32)C12CCCCC2 , viability, T/C read as 119%

Notebook: O=C(c1cc(Cc2n[nH]c(=O)c3ccccc23)ccc1F)N1CCN(C(=O)C2CC2)CC1 + CCN1C(C(=O)NC23CCC(C(=O)O)(CC2)CC3)C(c2cccc(Cl)c2F)C2(C(=O)Nc3cc(Cl)ccc32)C12CCCCC2 , viability, T/C read as 79.1%

Notebook: C=C(F)C(=O)N1CCN(c2nc(OCC3CCCN3C)nc3c2CCN(c2cccc4cccc(Cl)c24)C3)CC1CC#N (centres undefined) + CCN1C(C(=O)NC23CCC(C(=O)O)(CC2)CC3)C(c2cccc(Cl)c2F)C2(C(=O)Nc3cc(Cl)ccc32)C12CCCCC2 , viability, T/C read as 111%

Notebook: COc1c(OCCCN2CCOCC2)ccc2c3n(c(=NC(=O)c4cnc(N)nc4)nc12)CCN3 + CCN1C(C(=O)NC23CCC(C(=O)O)(CC2)CC3)C(c2cccc(Cl)c2F)C2(C(=O)Nc3cc(Cl)ccc32)C12CCCCC2 , viability, T/C read as 16.7%

---

# System: 494315-158-R-J1-PDC complex spheroid growth, percent test/control
# test_protocol: Anticancer human tumor 494315-158-R-J1-PDC cell line growth inhibition [Asc];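 note: compound exposure lasted seven days after spheroids formed for three days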
# test_context: second compound 0.0316 µM; first compound 0.1 µM; stronger effect = lower value
# strict inequality: viability, T/C < 50% yields 1 (yes), everything else yields 0 (no)

Problem: viability, T/C under 50%? Item: O=C(c1cc(Cc2n[nH]c(=O)c3ccccc23)ccc1F)N1CCN(C(=O)C2CC2)CC1 + CNC(C)C(=O)NC1CN(S(=O)(=O)c2cccc(S(=O)(=O)N3CCC4CCC(C(=O)NC(c5ccccc5)c5ccccc5)N4C(=O)C(NC(=O)C(C)NC)C3)c2)CCC2CCC(C(=O)NC(c3ccccc3)c3ccccc3)N2C1=O
Solution: 0 (no)

Problem: viability, T/C under 50%? Item: C=C(F)C(=O)N1CCN(c2nc(OCC3CCCN3C)nc3c2CCN(c2cccc4cccc(Cl)c24)C3)CC1CC#N (stereo not drawn) + CNC(C)C(=O)NC1CN(S(=O)(=O)c2cccc(S(=O)(=O)N3CCC4CCC(C(=O)NC(c5ccccc5)c5ccccc5)N4C(=O)C(NC(=O)C(C)NC)C3)c2)CCC2CCC(C(=O)NC(c3ccccc3)c3ccccc3)N2C1=O
Solution: 0 (no)

Problem: viability, T/C under 50%? Item: C#Cc1c(F)ccc2cc(O)cc(-c3ncc4c(N5CC6CCC(C5)N6)nc(OCC56CCCN5CC(F)C6)nc4c3F)c12 (stereo not drawn) + CNC(C)C(=O)NC1CN(S(=O)(=O)c2cccc(S(=O)(=O)N3CCC4CCC(C(=O)NC(c5ccccc5)c5ccccc5)N4C(=O)C(NC(=O)C(C)NC)C3)c2)CCC2CCC(C(=O)NC(c3ccccc3)c3ccccc3)N2C1=O
Solution: 0 (no)

Problem: viability, T/C under 50%? Item: O=C(c1ccc(F)c(F)c1Nc1ccc(I)cc1F)N1CC(O)([C@@H]2CCCCN2)C1 + CNC(C)C(=O)NC1CN(S(=O)(=O)c2cccc(S(=O)(=O)N3CCC4CCC(C(=O)NC(c5ccccc5)c5ccccc5)N4C(=O)C(NC(=O)C(C)NC)C3)c2)CCC2CCC(C(=O)NC(c3ccccc3)c3ccccc3)N2C1=O
Solution: 0 (no)

Problem: viability, T/C under 50%? Item: CCN1CCN(Cc2ccc(Nc3ncc(F)c(-c4cc(F)c5nc(C)n(C(C)C)c5c4)n3)nc2)CC1 + CNC(C)C(=O)NC1CN(S(=O)(=O)c2cccc(S(=O)(=O)N3CCC4CCC(C(=O)NC(c5ccccc5)c5ccccc5)N4C(=O)C(NC(=O)C(C)NC)C3)c2)CCC2CCC(C(=O)NC(c3ccccc3)c3ccccc3)N2C1=O
Solution: 0 (no)

Problem: viability, T/C under 50%? Item: C=CC(=O)N1CCN(c2nc(=O)n(-c3c(C)ccnc3C(C)C)c3nc(-c4c(O)cccc4F)c(F)cc23)C(C)C1 (stereo not drawn) + CNC(C)C(=O)NC1CN(S(=O)(=O)c2cccc(S(=O)(=O)N3CCC4CCC(C(=O)NC(c5ccccc5)c5ccccc5)N4C(=O)C(NC(=O)C(C)NC)C3)c2)CCC2CCC(C(=O)NC(c3ccccc3)c3ccccc3)N2C1=O
Solution: 0 (no)

Problem: viability, T/C under 50%? Item: Cn1ncnc1[C@H]1c2n[nH]c(=O)c3cc(F)cc(c23)N[C@@H]1c1ccc(F)cc1 + CNC(C)C(=O)NC1CN(S(=O)(=O)c2cccc(S(=O)(=O)N3CCC4CCC(C(=O)NC(c5ccccc5)c5ccccc5)N4C(=O)C(NC(=O)C(C)NC)C3)c2)CCC2CCC(C(=O)NC(c3ccccc3)c3ccccc3)N2C1=O
Solution: 1 (yes)

Problem: viability, T/C under 50%? Item: COc1c(OCCCN2CCOCC2)ccc2c3n(c(=NC(=O)c4cnc(N)nc4)nc12)CCN3 + CNC(C)C(=O)NC1CN(S(=O)(=O)c2cccc(S(=O)(=O)N3CCC4CCC(C(=O)NC(c5ccccc5)c5ccccc5)N4C(=O)C(NC(=O)C(C)NC)C3)c2)CCC2CCC(C(=O)NC(c3ccccc3)c3ccccc3)N2C1=O
Solution: 1 (yes)

Reference source: PubChem BioAssay AID1963420
